Test system: Swiss mice
method_description: Acute hepatotoxicity assay, plasma liver markers
Assay type: in vivo
condition_parameters: Swiss mice, single 100 mg/kg intraperitoneal, 24 hours later, plasma
experimental_readout: ALT plasma level (IU/I)
# number only, unit IU/I dropped from output

In: Please give the measured ALT plasma level for this compound: `Cc1ccc(Nc2cnc(-c3ccccc3)c(C)c2)c(C(=O)O)c1`
Out: 70

In: Please give the measured ALT plasma level for this compound: `Cc1ccc(Nc2cnc(-c3ccccc3F)c(C)c2)c(C(=O)O)c1`
Out: 55

In: Please give the measured ALT plasma level for this compound: `Cc1ccc(Nc2ccc(-c3c(F)cccc3F)nc2)c(C(=O)O)c1`
Out: 69

In: Please give the measured ALT plasma level for this compound: `Cc1ccc(Nc2cnc(-c3ccccc3Cl)nc2)c(C(=O)O)c1`
Out: 89

In: Please give the measured ALT plasma level for this compound: `O=C(O)c1cc(C2CC2)ccc1Nc1cnc(-c2c(F)cccc2F)nc1`
Out: 45

In: Please give the measured ALT plasma level for this compound: `O=C(O)c1cc(C2CC2)ccc1Nc1cnc(-c2ccccc2Cl)nc1`
Out: 75

In: Please give the measured ALT plasma level for this compound: `O=C(O)c1cc(C2CC2)ccc1Nc1cnc(-c2ccccc2F)nc1`
Out: 56

In: Please give the measured ALT plasma level for this compound: `Cc1ccc(Nc2ccc(-c3ccccc3Cl)nc2)c(C(=O)O)c1`
Out: 43

In: Please give the measured ALT plasma level for this compound: `Cc1ccc(Nc2cnc(-c3ccccc3Cl)c(C)c2)c(C(=O)O)c1`
Out: 72

In: Please give the measured ALT plasma level for this compound: C/C(O)=C(\C#N)C(=O)Nc1ccc(C(F)(F)F)cc1 [Teriflunomide, reference compound]
Out: 440

Where these numbers come from: patent US20110280831A1
